Tested on: SK-MEL-5 melanoma
Test: NCI tumour cell line growth inhibition, 48 h
// reported TGI per item

Before answering, review these 3 worked examples.
{"COMPOUND": "S=C=NCc1ccccc1", "DATA VALUE": "7.76 µM"}
{"COMPOUND": "NCCCC1NC(=O)/C(=C(O)/C=C/C2CCC[C@@H]2CC2SCCS2)C1=O (stereo not given in full)", "DATA VALUE": "> 100 µM"}
{"COMPOUND": "COc1ccccc1N1C(=O)CS(=O)(=O)C1c1cccc(Oc2ccccc2)c1 (stereo not given)", "DATA VALUE": "28.9 µM"}

Entry under test: O=C(/C=C/c1ccccc1O)c1cccnc1 . Its TGI was > 100 µM

Entry under test: COc1cccc(-n2ncc3c(N/N=C/c4ccc(S(C)(=O)=O)cc4)ncnc32)c1 . Its TGI was > 15.8 µM

* * *

Tested on: NCI-H522 lung
Test: NCI tumour cell line growth inhibition, 48 h; in the data active = GI50 below about 0.43 µM; inactive = the rest
Outcome field: choose from active, inactive

{"COMPOUND": "CC[C@H](C)[C@H](NC(=O)Nc1ccccc1)C(=O)N(C)[C@H](C[C@@H](OC(C)=O)c1nc(C(=O)N[C@@H](Cc2ccccc2)C[C@H](C)C(=O)OC)cs1)C(C)C", "ASSAYED SYSTEM": "NCI-H522 lung", "CLASS ASSIGNMENT": "inactive"}
{"COMPOUND": "CCC[CH2][Ge]([CH2]CCC)([CH2]CCC)[O]C(=O)C(OC)c1ccccc1 (centres undefined)", "ASSAYED SYSTEM": "NCI-H522 lung", "CLASS ASSIGNMENT": "inactive"}
{"COMPOUND": "CCCCCCCCCCCC[n+]1ccccc1", "ASSAYED SYSTEM": "NCI-H522 lung", "CLASS ASSIGNMENT": "inactive"}
{"COMPOUND": "C[C@]12CCC3c4ccc(O)cc4CCC3C1Cc1ccc(O)cc12 (some centres undefined)", "ASSAYED SYSTEM": "NCI-H522 lung", "CLASS ASSIGNMENT": "inactive"}
{"COMPOUND": "O=C1c2cc3c(cc2[C@@H]2[C@H]1c1ccc([N+](=O)[O-])cc1C(=O)N2CCCCl)OCO3", "ASSAYED SYSTEM": "NCI-H522 lung", "CLASS ASSIGNMENT": "active"}

Test call, this compound: COC(=O)c1ccc2c(c1)C(=O)c1c-2n(CCCN)c(=O)c2cc([N+](=O)[O-])ccc12
active

Test call, this compound: CCOC(=O)c1ccc(Nc2sc(C(=O)c3cccc([N+](=O)[O-])c3)c(N)c2C#N)cc1
active

Test call, this compound: O=C(OCC1OC(OC(=O)c2cc(O)c(O)c(OC(=O)c3cc(O)c(O)c(O)c3)c2)C(OC(=O)c2cc(O)c(O)c(OC(=O)c3cc(O)c(O)c(O)c3)c2)C(OC(=O)c2cc(O)c(O)c(OC(=O)c3cc(O)c(O)c(O)c3)c2)C1OC(=O)c1cc(O)c(O)c(OC(=O)c2cc(O)c(O)c(O)c2)c1)c1cc(O)c(O)c(OC(=O)c2cc(O)c(O)c(O)c2)c1 (centres undefined)
inactive

* * *

// reported TGI per item
Test system: PC-3 prostate
Test: NCI tumour cell line growth inhibition, 48 h

{"MOLECULE": "Cc1nc(-c2cc3c(ccc4ccccc43)oc2=O)cc2c1c(=O)oc1ccc3ccccc3c12", "TGI": "> 100 µM"}
{"MOLECULE": "COc1ccc(N2C(=O)c3cccnc3S2(=O)=O)cc1", "TGI": "> 100 µM"}
{"MOLECULE": "O=C1c2cscc2C(=O)C1(O)O", "TGI": "> 100 µM"}

Entry under test: CCN(CC)CCOC(=O)CCN1CC2CCC(CC2)C1 . Its TGI was > 100 µM

Entry under test: COc1ccc(C2CC(=O)CC(c3ccc(OC)cc3)C23C(=O)NC(=S)NC3=O)cc1 (stereo not given) . Its TGI was > 100 µM

Entry under test: Cc1cc2c3ccccc3ccc2[n+]2ccccc12 . Its TGI was 32.1 µM

Entry under test: CNNC(=N\S(=O)(=O)c1cc(C(=O)Nc2ccc(Cl)cc2)c(Cl)cc1SCc1ccccc1)/N=C/c1ccc([N+](=O)[O-])s1 . Its TGI was > 100 µM

Entry under test: O=C1c2ccccc2C(=O)c2c1ccc(C(=O)O)c2-c1ccc2ccccc2c1 . Its TGI was 72.4 µM

Entry under test: COC(=O)n1c(=O)n(-c2ccccc2)c(=O)n1C(=O)Nc1ccccc1 . Its TGI was > 100 µM

Entry under test: Cn1c(Sc2ccc(-c3cccnc3)n2C)ccc1-c1cccnc1 . Its TGI was 31 µM
